- Test system: SF-268 CNS
- ASSAY_PROCEDURE: NCI tumour cell line growth inhibition, 48 h
Where TGI equals or exceeds 40 µM, the correct label is condition met; where it does not, the label is condition not met.

{"COMPOUND": "CC1=NN(c2cccc(Cl)c2)C(=N/c2nc3ccccc3s2)/C1=C\\c1ccccc1O", "SUBJECT_OF_TEST": "SF-268 CNS", "CLASS_LABEL": "condition met"}
{"COMPOUND": "Cc1c(C(=O)CCl)c(=O)n(-c2ccccc2)n1C", "SUBJECT_OF_TEST": "SF-268 CNS", "CLASS_LABEL": "condition not met"}
{"COMPOUND": "CCCCn1c(C)c(C)c2c1NN=C(C#N)S2(=O)=O", "SUBJECT_OF_TEST": "SF-268 CNS", "CLASS_LABEL": "condition met"}
{"COMPOUND": "CCOC(=O)c1csc(NC(=O)CN2CCCCC2)n1", "SUBJECT_OF_TEST": "SF-268 CNS", "CLASS_LABEL": "condition met"}
{"COMPOUND": "O=P(Oc1ccccc1)(Oc1ccccc1)C(O)c1ccccc1 (stereo not drawn)", "SUBJECT_OF_TEST": "SF-268 CNS", "CLASS_LABEL": "condition met"}
{"COMPOUND": "CN1NC2=NCCN=C3NN(C)C(=NCCN=C1S2)S3", "SUBJECT_OF_TEST": "SF-268 CNS", "CLASS_LABEL": "condition met"}
{"COMPOUND": "CC(C)OP(=O)(OC(C)C)c1nn(-c2ccc([N+](=O)[O-])cc2)c(=N)s1", "SUBJECT_OF_TEST": "SF-268 CNS", "CLASS_LABEL": "condition met"}
{"COMPOUND": "CN(C)CCN1N=Nc2cccc3cccc1c23", "SUBJECT_OF_TEST": "SF-268 CNS", "CLASS_LABEL": "condition met"}
{"COMPOUND": "COc1cc(-c2cc(C(=O)Nc3nc4ccccc4s3)nc3cc(-c4ccccc4)nn23)cc(OC)c1OC", "SUBJECT_OF_TEST": "SF-268 CNS", "CLASS_LABEL": "condition met"}
{"COMPOUND": "Clc1ccccc1-c1nn2c(CCCCCCCCc3nnc4sc(-c5ccccc5Cl)nn34)nnc2s1", "SUBJECT_OF_TEST": "SF-268 CNS", "CLASS_LABEL": "condition met"}
{"COMPOUND": "COC(=O)C1C(O)C(C)C(O)C(C)/C=C\\C=C(C)C(=O)Nc2c(C)c(OC(C)=O)c3c(c2O)C(=O)C(C)=C2OCOC(=C23)C(C)=CC(C)(O)C(O)C(C)C1O (stereo not drawn)", "SUBJECT_OF_TEST": "SF-268 CNS", "CLASS_LABEL": "condition met"}
{"COMPOUND": "Cc1nc(C)c(N2CCN(C(=O)NC(CCC(=O)O)C(=O)O)CC2)c(=O)[nH]1 (stereo not drawn)", "SUBJECT_OF_TEST": "SF-268 CNS", "CLASS_LABEL": "condition met"}
{"COMPOUND": "NS(=O)(=O)c1ccc(NC(=S)/N=C/c2c(O)c3ccccc3[nH]c2=O)cc1", "SUBJECT_OF_TEST": "SF-268 CNS", "CLASS_LABEL": "condition met"}
{"COMPOUND": "N.N.NCCCCN.O=C([O-])CC(=O)[O-].O=C([O-])CC(=O)[O-].[Pt+4].[Pt+4]", "SUBJECT_OF_TEST": "SF-268 CNS", "CLASS_LABEL": "condition met"}
{"COMPOUND": "O=c1cnn(C/C=C/CP(=O)(O)O)c(=O)[nH]1", "SUBJECT_OF_TEST": "SF-268 CNS", "CLASS_LABEL": "condition met"}
{"COMPOUND": "COc1cccc(N2C(=O)CSC2c2c[nH]c3ccccc23)c1 (stereo not drawn)", "SUBJECT_OF_TEST": "SF-268 CNS", "CLASS_LABEL": "condition met"}
{"COMPOUND": "CCOC(=O)Oc1c(OC)cc(C(=O)c2ccc(OC)c(OC(=O)CCl)c2OC)cc1OC", "SUBJECT_OF_TEST": "SF-268 CNS", "CLASS_LABEL": "condition met"}
{"COMPOUND": "CCN(CC)c1ccc2[nH]c3c(C(N)=O)cc(=O)c(=O)c=3oc2c1", "SUBJECT_OF_TEST": "SF-268 CNS", "CLASS_LABEL": "condition not met"}
{"COMPOUND": "NC(=O)c1csc(C2O[C@@H](COP(=O)(O)OP(=O)(O)OC[C@H]3OC(n4cnc5c(N)ncnc54)[C@H](O)[C@@H]3O)[C@H](O)[C@@H]2O)n1 (stereo partly drawn)", "SUBJECT_OF_TEST": "SF-268 CNS", "CLASS_LABEL": "condition met"}
{"COMPOUND": "COC1/C=C/C(C)C(C(C)C(OC)C(C)CCC(=O)C(C)C(CC(=O)O)OC)OC(=O)/C=C/C=C(\\C)CC(OC)C(OC)C2=CC(=O)O[C@@H](C(C)C(OC)CC(OC)/C=C/C(C)C(O)C1)[C@H]2O (stereo partly drawn)", "SUBJECT_OF_TEST": "SF-268 CNS", "CLASS_LABEL": "condition not met"}
{"COMPOUND": "COc1cc2c(cc1C)NC(=O)/C2=C\\c1cccnc1", "SUBJECT_OF_TEST": "SF-268 CNS", "CLASS_LABEL": "condition met"}
{"COMPOUND": "C=C(CN1CCc2ccccc2C1)c1ccc(/C=C/C(=O)Nc2ccccc2N)cc1", "SUBJECT_OF_TEST": "SF-268 CNS", "CLASS_LABEL": "condition met"}
{"COMPOUND": "N#Cc1c(Cl)cccc1Oc1ccc(S(=O)(=O)/N=C(\\NO)Nc2ccc(Cl)cc2)cc1", "SUBJECT_OF_TEST": "SF-268 CNS", "CLASS_LABEL": "condition met"}
{"COMPOUND": "O=C1C(Cl)=C(Oc2ccccc2)C(=O)c2ccccc21", "SUBJECT_OF_TEST": "SF-268 CNS", "CLASS_LABEL": "condition not met"}
{"COMPOUND": "O=[N+]([O-])/C(C(Cl)=C(Cl)Cl)=C(\\Nc1cccc2cccnc12)Sc1ccccc1", "SUBJECT_OF_TEST": "SF-268 CNS", "CLASS_LABEL": "condition met"}
{"COMPOUND": "O=C(O)CSCC(=O)c1ccccc1", "SUBJECT_OF_TEST": "SF-268 CNS", "CLASS_LABEL": "condition met"}
{"COMPOUND": "Cc1ccc2c(/C=C/C(=O)c3cc(CN4CCOCC4)c(O)c4nc(C)ccc34)cc(CN3CCOCC3)c(O)c2n1", "SUBJECT_OF_TEST": "SF-268 CNS", "CLASS_LABEL": "condition not met"}
{"COMPOUND": "Cc1cc(S(=O)(=O)Nc2nnc(-c3ccco3)c(-c3ccco3)n2)c(SCc2ccccc2)cc1Cl", "SUBJECT_OF_TEST": "SF-268 CNS", "CLASS_LABEL": "condition met"}
{"COMPOUND": "O=S(=O)(O)c1cccc2ccc(O)c(N=Nc3ccc(S(=O)(=O)c4ccc(N=Nc5c(O)ccc6cccc(S(=O)(=O)O)c56)cc4)cc3)c12", "SUBJECT_OF_TEST": "SF-268 CNS", "CLASS_LABEL": "condition met"}
{"COMPOUND": "Nc1c(O)c2c(c(O)c1Cl)C(=O)C=CC2=O", "SUBJECT_OF_TEST": "SF-268 CNS", "CLASS_LABEL": "condition not met"}
{"COMPOUND": "CCNCCNc1cc(-c2ccc(Cl)cc2)c(C#N)c2nc3ccccc3n12", "SUBJECT_OF_TEST": "SF-268 CNS", "CLASS_LABEL": "condition not met"}
{"COMPOUND": "O=S(=O)(O)c1ccc(N=Nc2c(O)ccc3ccccc23)cc1", "SUBJECT_OF_TEST": "SF-268 CNS", "CLASS_LABEL": "condition met"}
{"COMPOUND": "O=C(CCl)Nc1ccccc1SCc1cc(Cl)cc2c1OCOC2", "SUBJECT_OF_TEST": "SF-268 CNS", "CLASS_LABEL": "condition not met"}
{"COMPOUND": "COC(=O)[C@H](C)[C@H]1CC[C@@](C)([C@H]2CC3C(C)(C)[C@H]4CCC(C)=C[C@H]4C[C@@]3(C)O2)OO1 (stereo partly drawn)", "SUBJECT_OF_TEST": "SF-268 CNS", "CLASS_LABEL": "condition not met"}
{"COMPOUND": "O=C1CC2(CCCc3sccc32)C(=O)N1 (stereo not drawn)", "SUBJECT_OF_TEST": "SF-268 CNS", "CLASS_LABEL": "condition met"}
{"COMPOUND": "COc1c(O)cc2oc3cc(O)c(CC=C(C)C)c(O)c3c(=O)c2c1C/C=C(\\C)CCC=C(C)C", "SUBJECT_OF_TEST": "SF-268 CNS", "CLASS_LABEL": "condition not met"}
